# collection of IC50 values tested on Biotin tagged HIF-2α protein containing PAS-B domain (240-350) (Homo sapiens)

Known IC50 results, listed for orientation:
| COMPOUND | STUDY TARGET | REPORTED MEASUREMENT |
| --- | --- | --- |
| O[C@H]1c2c(C(F)(F)F)nn(CC3CC3)c2CCC1(F)F | Biotin tagged HIF-2α protein containing PAS-B domain (240-350) (Homo sapiens) | > 1000 nM |
| O[C@H]1c2c(C(F)(F)F)nn(CC3CC3(F)F)c2CCC1(F)F (single isomer, unassigned) [23/24 DIAST-2] | Biotin tagged HIF-2α protein containing PAS-B domain (240-350) (Homo sapiens) | 100 to 1000 nM |
| CC(F)(F)CCn1nc(C(F)(F)F)c2c1CCC(F)(F)[C@H]2O | Biotin tagged HIF-2α protein containing PAS-B domain (240-350) (Homo sapiens) | 100 to 1000 nM |
| O[C@H]1c2c(C(F)(F)F)nn(CCCC(F)(F)F)c2CCC1(F)F | Biotin tagged HIF-2α protein containing PAS-B domain (240-350) (Homo sapiens) | < 100 nM |
| CC(CCn1nc(C(F)(F)F)c2c1CCC(F)(F)[C@H]2O)C(F)(F)F (stereo partly drawn) | Biotin tagged HIF-2α protein containing PAS-B domain (240-350) (Homo sapiens) | < 100 nM |
| O[C@H]1c2c(C(F)(F)F)nn(CC3CC3(F)F)c2CCC1(F)F (single isomer, unassigned) [23/24 DIAST-1] | Biotin tagged HIF-2α protein containing PAS-B domain (240-350) (Homo sapiens) | 100 to 1000 nM |
| CC(C)(C#N)CCn1nc(C(F)(F)F)c2c1CCC(F)(F)[C@H]2O | Biotin tagged HIF-2α protein containing PAS-B domain (240-350) (Homo sapiens) | 100 to 1000 nM |
| COCCCn1nc(C(F)(F)F)c2c1CCC(F)(F)[C@H]2O | Biotin tagged HIF-2α protein containing PAS-B domain (240-350) (Homo sapiens) | > 1000 nM |

// IC50 lookup, key: O[C@H]1c2c(C(F)(F)F)nn([C@H]3CC[C@H](C(F)(F)F)CC3)c2CCC1(F)F
> 1000 nM

And the next one, OC(CCn1nc(C(F)(F)F)c2c1CCC(F)(F)[C@H]2O)C(F)(F)F (stereo partly drawn) ?
100 to 1000 nM

Entry CC(CCn1nc(S(C)(=O)=O)c2c1CCC(F)(F)[C@H]2O)C(F)(F)F (stereo partly drawn) please
> 1000 nM

Then O[C@H]1c2c(C(F)(F)F)nn(CC3CC(F)(F)C3)c2CCC1(F)F ?
100 to 1000 nM

---

# pIC50 per record follows
Molecular target: HIF-2α (Homo sapiens, UniProt Q99814)
Sequence (Q99814 whole entry): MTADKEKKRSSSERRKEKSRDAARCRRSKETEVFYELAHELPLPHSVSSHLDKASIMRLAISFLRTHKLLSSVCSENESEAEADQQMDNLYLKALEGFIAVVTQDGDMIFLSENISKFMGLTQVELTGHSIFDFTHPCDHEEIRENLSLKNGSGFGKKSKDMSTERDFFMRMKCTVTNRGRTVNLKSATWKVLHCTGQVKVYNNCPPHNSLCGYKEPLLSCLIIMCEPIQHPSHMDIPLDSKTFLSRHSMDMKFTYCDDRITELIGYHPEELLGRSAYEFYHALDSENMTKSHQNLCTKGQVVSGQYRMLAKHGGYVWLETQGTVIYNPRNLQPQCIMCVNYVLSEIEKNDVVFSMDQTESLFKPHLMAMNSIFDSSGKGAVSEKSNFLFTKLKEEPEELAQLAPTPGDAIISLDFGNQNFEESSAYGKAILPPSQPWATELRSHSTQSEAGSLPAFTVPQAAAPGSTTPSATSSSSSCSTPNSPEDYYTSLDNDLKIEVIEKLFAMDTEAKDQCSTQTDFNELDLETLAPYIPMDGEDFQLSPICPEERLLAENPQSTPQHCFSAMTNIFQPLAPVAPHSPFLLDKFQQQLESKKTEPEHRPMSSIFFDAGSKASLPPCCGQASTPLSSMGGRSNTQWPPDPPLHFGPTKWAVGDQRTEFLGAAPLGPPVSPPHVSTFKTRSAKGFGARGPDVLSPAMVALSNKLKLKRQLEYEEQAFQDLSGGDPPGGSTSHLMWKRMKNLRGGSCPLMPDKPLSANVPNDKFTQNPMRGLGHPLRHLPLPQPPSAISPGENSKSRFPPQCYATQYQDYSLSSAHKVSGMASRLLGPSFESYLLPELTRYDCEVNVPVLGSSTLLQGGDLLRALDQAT
Assay: HIF-2α Luciferase Reporter Assay (serum free) in HIF-Luc-786-0 cells
Type: cell-based
Details: Opti-MEM, 786-0 reporter cells, 20 hours incubation
pIC50: −log10 of the molar value.

Below, each entry is followed by its recorded pIC50 result.
| MOLECULE | pIC50 |
| --- | --- |
| O[C@H]1c2c(C(F)(F)F)nn([C@H]3CCC(F)(F)[C@H](F)C3)c2CC1(F)F [Example 122] | > 7.00 |
| CS(=O)(=O)CCn1nc(C(F)(F)F)c2c1CCC(F)(F)[C@H]2O [Example 42] | 6.00 to 7.00 |

Give pIC50 (HIF-2α (Homo sapiens, UniProt Q99814)) of the following molecule: O[C@H]1c2c(C(F)(F)F)nn([C@H]3C[C@@H](F)[C@@H](F)[C@@H](F)C3)c2CC1(F)F (mixture of isomers) [Example 88]
> 7.00

For O[C@H]1c2c(C(F)(F)F)nn([C@@H]3CCC[C@H](C(F)(F)F)C3)c2CC1(F)F [Example 82] then?
6.00 to 7.00

Queued: O[C@H]1c2c(C(F)(F)F)nn(C3CC4(C3)CC(F)(F)C4)c2CC1(F)F [Example 66]
> 7.00

---

Target: HIF-2α (Homo sapiens, UniProt Q99814)
Assay: HIF-2α Luciferase Reporter Assay (serum), HRE-luciferase 786-0 cells in 100% human serum
Format: cell-based
Conditions: 100% human serum, 786-0 reporter cells, overnight incubation; read-out: Serum Potency
Description: Generation of HIF-2α Luciferase 786-0 Cell Line: Stable cell lines were generated by transducing 786-0 cells (ATCC, CRL-1932) with Cignal Lenti HIF Luc Reporter lentivirus (CLS-007L, Qiagen) according to the manufacturer's guidelines. In brief, 0.3×10^6 786-0 cells were transduced with lentivirus at a multiplicity of infection (MOI) of 25 for 24 hours. […]
pIC50: −log10 of the molar value.
Measured pIC50 values are reported for all entries that follow.

| MOLECULE | pIC50 |
| --- | --- |
| O[C@H]1c2c(C(F)(F)F)nn([C@H]3CCO[C@@H](C(F)(F)F)C3)c2[C@@H](F)[C@H]1F (single isomer, unassigned) [150/151 DIAST-1] | < 6.00 |
| CO[C@H](CCn1nc(C(F)(F)F)c2c1[C@H](F)C(F)(F)[C@H]2O)C(F)(F)F (single isomer, unassigned) [148/149 DIAST-1] | > 7.00 |
| O[C@H]1c2c(C(F)(F)F)nn(CCc3ccco3)c2CC1(F)F | < 6.00 |

Could you share which pIC50 value was measured for O[C@H]1c2c(C(F)(F)F)nn(CCc3cnoc3)c2CC1(F)F ?
< 6.00

Now the molecule O[C@H]1c2c(C(F)(F)F)nn([C@H]3C[C@@H](F)[C@@H](F)[C@@H](F)C3)c2CC1(F)F (mixture of isomers)
6.00 to 7.00

Same for CC(CCn1nc(C(F)(F)F)c2c1CCC(F)(F)[C@H]2O)OC(F)F (stereo partly drawn)
> 7.00

---

# key: entry, value: pIC50
Target: HIF-2α (Homo sapiens, UniProt Q99814)
Test: HIF-2α Luciferase Reporter Assay (serum free) in HIF-Luc-786-0 cells
Type: cell-based
Conditions: Opti-MEM, 786-0 reporter cells, 20 hours incubation
pIC50: −log10 of the molar value.

Examples with answers:
| COMPOUND | STUDY TARGET | READOUT TYPE | REPORTED MEASUREMENT |
| --- | --- | --- | --- |
| O[C@H]1c2c(C(F)(F)F)nn(C3CCC(F)(F)CC3)c2[C@@H](F)[C@H]1F | HIF-2α (Homo sapiens, UniProt Q99814) | pIC50 | > 7.00 |
| O=S(=O)(CCn1nc(C(F)(F)F)c2c1CCC(F)(F)[C@H]2O)C(F)(F)F | HIF-2α (Homo sapiens, UniProt Q99814) | pIC50 | > 7.00 |
| O[C@H]1c2c(C(F)(F)F)nn([C@H]3CC[C@H](F)[C@H](F)C3)c2[C@@H](F)[C@H]1F (single isomer, unassigned) [141/142 DIAST-2] | HIF-2α (Homo sapiens, UniProt Q99814) | pIC50 | 6.00 to 7.00 |
| O[C@H]1c2c(C(F)(F)F)nn(CC(F)(F)C3CC3)c2CCC1(F)F | HIF-2α (Homo sapiens, UniProt Q99814) | pIC50 | < 6.00 |
| O[C@H]1c2c(C(F)(F)F)nn([C@@H]3CCCC(F)(F)C3)c2[C@@H](F)[C@H]1F (single isomer, unassigned) [136/137 DIAST-2] | HIF-2α (Homo sapiens, UniProt Q99814) | pIC50 | > 7.00 |

Next compound, pIC50 to be filled in.
Could you tell me which pIC50 is on file for O[C@H]1c2c(C(F)(F)F)nn(CCc3ccco3)c2CC1(F)F ?
> 7.00

---

Target: HIF-2α (Homo sapiens, UniProt Q99814)
Test: HIF-2α Luciferase Reporter Assay (serum free) in HIF-Luc-786-0 cells
Type: cell-based
Details: Opti-MEM, 786-0 reporter cells, 20 hours incubation
pIC50: −log10 of the molar value.
READOUT TYPE: pIC50

| COMPOUND | pIC50 |
| --- | --- |
| O[C@H]1c2c(C(F)(F)F)nn(CCc3cccc(F)c3)c2CC1(F)F | > 7.00 |
| O=S1(=O)CCCC(n2nc(C(F)(F)F)c3c2CC(F)(F)[C@H]3O)C1 (stereo partly drawn) | 6.00 to 7.00 |
| O[C@H]1c2c(C(F)(F)F)nn([C@@H]3CC[C@@H](F)[C@@H](F)C3)c2[C@@H](F)C1(F)F | > 7.00 |
| O[C@H]1c2c(C(F)(F)F)nn(C3CCC[C@H](OC(F)F)C3)c2CC1(F)F (mixture of isomers) | > 7.00 |
| O[C@H]1c2c(C(F)(F)F)nn([C@H]3CC[C@H](C(F)(F)F)CC3)c2CCC1(F)F | < 6.00 |

// fetch HIF-2α (Homo sapiens, UniProt Q99814) pIC50 for O[C@H]1c2c(C(F)(F)F)nn([C@@H]3CCO[C@H](C(F)(F)F)C3)c2[C@@H](F)[C@H]1F (single isomer, unassigned) [150/151 DIAST-2]
< 6.00

Cited source for all entries: patent US12071411B2
